Recorded composite z-score for the following molecules
Test system: Neuregulin-1 EGF-like domain
method-description: binders of neuregulin-1 EGF-like domain, primary screen, biochemical, small-molecule microarray, 635 nm fluorescence (AID 1081);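 also: binding of the protein to compounds printed on small-molecule microarray slides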
test-conditions: small-molecule microarray binding, higher = more signal
metric: composite z-score

molecule	subject-of-test	metric	recorded-number
O=C(CS)NCCCCCNC(=O)[C@@H]1C[C@@H]2C(=O)N[C@@H](Cc3ccccc3)C(=O)N2[C@@H]1c1ccc(O)cc1	Neuregulin-1 EGF-like domain	composite z-score	1.36
O=C(NN=C1C[C@@H](O)[C@@H](O)[C@@H]2[C@@H]3C(=O)N(c4cccc(Oc5ccccc5)c4)C(=O)[C@@H]3CC[C@H]12)OCc1ccccc1	Neuregulin-1 EGF-like domain	composite z-score	-0.533
CC(=O)OC[C@H]1O[C@H](CC=NOC[C@@H](C)[C@H](OCc2ccccc2)C(C)C)C=C[C@@H]1OC(C)=O	Neuregulin-1 EGF-like domain	composite z-score	-0.712
Cc1ccc(C2CC=C(C(=O)O)CN2S(=O)(=O)c2ccc(C)cc2)cc1 (stereo not given)	Neuregulin-1 EGF-like domain	composite z-score	0.937
CCCNC(=O)OC[C@H]1O[C@H](CCON=CC[C@@H]2C=C[C@H](OC(C)=O)[C@@H](COC(C)=O)O2)C=C[C@@H]1Oc1ccc(OC)cc1	Neuregulin-1 EGF-like domain	composite z-score	0.576
CC(C)=NOCc1cccc(-c2cc(-c3ccccc3)no2)c1	Neuregulin-1 EGF-like domain	composite z-score	0.345
CO[C@@H]1COC(=O)CC=C[C@@H](C)[C@@H]2C=C[C@@H](O)[C@@H](COC(=O)CC=C[C@H]1C)O2	Neuregulin-1 EGF-like domain	composite z-score	-0.523
C=CCOC(=O)[C@H]1[C@@H]2C(=O)O[C@@H](c3ccccc3)[C@@H](c3ccccc3)N2[C@@H](c2ccc(OCCOC(=O)[C@H]3C[C@H]4C(=O)N5CCC[C@H]5C(=O)N4[C@H]3c3cccc(OCCO)c3)cc2)[C@]12C(=O)Nc1ccc(I)cc12	Neuregulin-1 EGF-like domain	composite z-score	1.47
C/C=C\[C@@H](NCc1ccccc1Br)[C@@H](O)Cc1ccccc1	Neuregulin-1 EGF-like domain	composite z-score	-0.537
CCOC(=O)[C@H](Cc1ccccc1)NC(=O)CCC1CC(OC(=O)NCCc2ccc(F)cc2)CC2(CCCC(COC(=O)NCC(c3ccccc3)c3ccccc3)O2)O1 (stereo not given in full)	Neuregulin-1 EGF-like domain	composite z-score	0.919
CO[C@H]1O[C@H](CO)[C@@H](OC(=O)Nc2ccc3c(c2)OCO3)[C@H](OC(=O)Nc2ccccc2-c2ccccc2)[C@@H]1OC(=O)Nc1ccccc1-c1ccccc1	Neuregulin-1 EGF-like domain	composite z-score	1.17
CCCCCCc1nc(CCCc2cc3c(c(CCCCCC)n2)[Si](C(C)C)(C(C)C)O[C@H]3c2ccccc2)cc2c1[Si](C(C)C)(C(C)C)O[C@H]2c1ccccc1	Neuregulin-1 EGF-like domain	composite z-score	-0.744
CCCNC(=O)OC[C@H]1O[C@H](CCON=C2[C@H]3CCn4c(=O)n(-c5ccccc5)c(=O)n4[C@H]3[C@H](O)[C@@H]3O[C@H]23)C=C[C@@H]1Oc1ccc(OC)cc1	Neuregulin-1 EGF-like domain	composite z-score	0.0894
CN1C(=O)C2C=CC(C(O)c3ccc(I)cc3)N(NC(=O)OC(C)(C)C)C2C1=O (stereo not given)	Neuregulin-1 EGF-like domain	composite z-score	1.38
Cc1cc2c(nc1C)CCCN2CC(O)CN1CCN(C)CC1 (stereo not given)	Neuregulin-1 EGF-like domain	composite z-score	0.346
